tgt: UniProt:Q15661
experiment: Inhibition concentration against beta tryptase was determined
quantity: IC50 (nM)
Just the number in nM, nothing appended.

Memo: CCCCn1cc(C(=O)N2CCC(c3cccc(CN)c3)CC2)c2cccc(C)c21.O=C(O)C(F)(F)F , reported IC50: 68

---

tgt: Tryptase beta-1 (Homo sapiens)
Sequence (Q15661 whole entry): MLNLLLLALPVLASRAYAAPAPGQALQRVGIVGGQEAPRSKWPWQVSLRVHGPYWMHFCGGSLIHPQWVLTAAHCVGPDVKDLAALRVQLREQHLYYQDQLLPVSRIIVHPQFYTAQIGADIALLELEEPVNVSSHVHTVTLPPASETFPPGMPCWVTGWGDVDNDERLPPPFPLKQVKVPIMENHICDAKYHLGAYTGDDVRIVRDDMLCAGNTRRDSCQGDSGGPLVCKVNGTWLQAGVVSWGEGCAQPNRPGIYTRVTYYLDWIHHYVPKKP
experiment: Inhibitory concentration against alpha tryptase was determined
quantity: IC50 (µM)
Report as a plain number; the unit µM is understood.

Value of IC50 reported for the compound CCCCn1cc(C(=O)N2CCC(c3cccc(CN)c3)CC2)c2cccc(C)c21.O=C(O)C(F)(F)F is 3.69

---

experiment: Bioavailability using combiPK assay in rats at a dose of 2 mg/kg administered orally
Type: ADME, organism-based
experimental-context: rat, in vivo, po, read-out: Bioavailabiility
quantity: bioavailability (%)
Numbers only here, please. The scale is %.

Data point: NCc1cccc(C2CCN(C(=O)c3c[nH]c4ccccc34)CC2)c1.O=C(O)C(F)(F)F ; bioavailability = 22

---

Assignment: determine reported bioavailability for the given compounds.
experiment: Bioavailability in rat using combiPK (dose of 2 mg/kg p.o.)
Type: ADME, organism-based
experimental-context: in vivo, po
Unit % implied. Number only.

For record Cc1cccc2c(C(=O)N3CCC(c4cccc(CN)c4)CC3)c[nH]c12.O=C(O)C(F)(F)F the listed bioavailability is 19

bioavailability in this record for NCc1cccc(C2CCN(C(=O)c3cn(S(=O)(=O)c4ccccc4)c4ccccc34)CC2)c1.O=C(O)C(F)(F)F : 17

---

experiment: Bioavailability in rat using combiPK assay (dose 1 mg/kg i.v.)
Type: ADME, organism-based
experimental-context: in vivo, iv
Give measured bioavailability for each item. Keep answers brief.
Express your answer in %, writing the number without its unit.

Summary for this molecule, CCn1cc(C(=O)N2CCC(c3cccc(CN)c3)CC2)c2ccccc21.O=C(O)C(F)(F)F : bioavailability is 11

# bioavailability of CCCCn1cc(C(=O)N2CCC(c3cccc(CN)c3)CC2)c2ccccc21.O=C(O)C(F)(F)F = 9.3

bioavailability measured on CCn1cc(C(=O)N2CCC(c3cccc(CN)c3)CC2)c2cccc(C)c21.O=C(O)C(F)(F)F = 26

Please fill in: bioavailability reported for CCCCn1cc(C(=O)N2CCC(c3cccc(CN)c3)CC2)c2cccc(C)c21.O=C(O)C(F)(F)F = 33

---

experiment: Bioavailability using combiPK assay in rats at a dose of 1 mg/kg administered intravenously
Assay type: ADME, organism-based
experimental-context: rat, in vivo, iv, read-out: Bioavailabiility
quantity: bioavailability (%)
Just the number in %, nothing appended.

Value of bioavailability reported for the molecule Cc1cccc2c(C(=O)N3CCC(c4cccc(CN)c4)CC3)c[nH]c12.O=C(O)C(F)(F)F is 19

---

experiment: Bioavailability in rat (combiPK assay) (dose 2 mg/kg p.o.)
Format: ADME, organism-based
experimental-context: in vivo, po
quantity: bioavailability (%)
Kindly answer with a numeric value in %, unit omitted.

bioavailability reading for CCn1cc(C(=O)N2CCC(c3cccc(CN)c3)CC2)c2ccccc21.O=C(O)C(F)(F)F : 11

GET /value?item= CCCCn1cc(C(=O)N2CCC(c3cccc(CN)c3)CC2)c2ccccc21.O=C(O)C(F)(F)F &field=bioavailability returns 9.3

Memo: CCn1cc(C(=O)N2CCC(c3cccc(CN)c3)CC2)c2cccc(C)c21.O=C(O)C(F)(F)F , reported bioavailability: 26

Reference source: ChEMBL document CHEMBL1145266
